- assay_system: RNF167
- procedure_text: pooled miR-30 sensor sort-seq; sequence = guide strand; also: reference of the scale not given here
- run_parameters: shRNA
Assign label 1 whenever sensor-assay potency score (higher = more potent) does not fall below -0.5; assign label 0 whenever it does.

• TTCCTCACTATTCCACACCATG = label 0
• TACAACGAGCTATCATTACTGC = label 1
• TCACATTGTGTACTACAGCGGC = label 1
• TTCCTCTTGGTCTTCGTCCCCA = label 1
• AAGACTGACCCATTGACCGGGG = label 1
• ATGTGTAGGAATCTGTTTCAGT = label 0
• TTCCGGGTCTGAGTGAGCCAGG = label 0

====

- assay_system: MTX3
- procedure_text: pooled miR-30 sensor sort-seq; sequence = guide strand
- run_parameters: shRNA
measured_quantity: sensor-assay potency score (higher = more potent)

• TATCACATTGACTTTCAAGGGT = 0.582
• TAAAGTAATTGTCACTCTCAAC = -1.48
• TAGAAGATTTAGGCACTCCTTG = -0.542
• TTGGCGAAGATTGTCATCCATC = -1.1
• TTGCTGAGAGTTCATAATCAGC = -1.72

====

- assay_system: GOLGA1
- procedure_text: pooled miR-30 sensor sort-seq; sequence = guide strand
- run_parameters: shRNA
measured_quantity: sensor-assay potency score (higher = more potent)

* TATAGTAGTGAAGAACTTCAGC | -0.313
* TATGGTCTTATTTTTCTCCAGA | -0.384
* TTCGAAGAGCTCATTATCGGGT | 0.0609
* TTTACTTAGTTCCTGCTGCTGG | 0.484
* TTAAGTCTGATGACATCTGATT | -1.11
* TTTATCTTCTGCAAGTTTCGGA | 0.43

====

# sensor-assay potency score (higher = more potent) listing for each entry below
- assay_system: PTGFR
- procedure_text: pooled miR-30 sensor sort-seq; sequence = guide strand
- run_parameters: shRNA
measured_quantity: sensor-assay potency score (higher = more potent)

• TTGACTGGCAAGCTTATAGAGA = -0.966
• TTTGATGTCTTCTGTGTTGTAG = 0.583
• TTGTGTTTGAAAGAAGCGCAGC = -0.804
• TTTGACAAATTTCAAAACCTGA = -0.803
• TAACTAACTGAAATATTGCCAA = -0.195

====

# sensor-assay potency score (higher = more potent) listing for each entry below
- assay_system: DEXI
- procedure_text: pooled miR-30 sensor sort-seq; sequence = guide strand
- run_parameters: shRNA
measured_quantity: sensor-assay potency score (higher = more potent)

* AATCTCTCTTCCACTCTCCTGG | -0.0495
* TAGTACAGGATCAGCACATTGA | -0.394
* TCAAACAGGAACCTCTCTGTTG | -0.754
* TAGAGGGCAGCAGCGGCGGCGG | -1.83
* TCAAAGACGTCGAGCTCCGAGT | -0.796
* ATGTACTCCATGAGGAAGGCGT | -1.19
* TAACCTGAAATGAAGGAGCGAG | -0.355
* TAACGTGGCACTCACCAGCATG | -1.35

====

- assay_system: PTGDR
- procedure_text: pooled miR-30 sensor sort-seq; sequence = guide strand
- run_parameters: shRNA
measured_quantity: sensor-assay potency score (higher = more potent)

* TACAGTGAGTCACACACTGGTT | -0.86
* TAGGCAGCCAGCACCACCGGGC | -0.802
* TTTAAGACTTTTAACACTGGTT | -0.351
* TTGATTCCTACTGACACCCTTG | 0.657
* TATCCTAACACACCTCTCCAAA | -1.13
* TAAATTTCAAAAACAACTGTAT | -0.297
* TACTGTTAAATCATACTCCTTG | 0.542
* TTAGTGGAATTGCTGCACCGGC | -1.14

====

# sensor-assay potency score (higher = more potent) listing for each entry below
- assay_system: RBM45
- procedure_text: pooled miR-30 sensor sort-seq; sequence = guide strand
- run_parameters: shRNA
measured_quantity: sensor-assay potency score (higher = more potent)

• TAAATTGTTGCTGACTTGGGTT = 0.143
• TTTGAGGCAACTGTGATCCAGA = -0.334
• TTGAATAAGGATCTCGTTGAAC = -0.518
• TATATCTTCTAATACGTCTAAA = -0.714
• TATTACTATAATAATCTTGTTC = -0.451
• TGGAAGTACAACATCTGTCTGG = -0.0344
• TTCATCTTCAACATCTCGGTGA = 0.811
• TAAAATACTGAACCACTCCATG = -0.914

====

# sensor-assay potency score (higher = more potent) listing for each entry below
- assay_system: INO80B
- procedure_text: pooled miR-30 sensor sort-seq; sequence = guide strand
- run_parameters: shRNA
measured_quantity: sensor-assay potency score (higher = more potent)

- TTGTGTTTCTTCTTGTGCTTCT: 0.567
- ATTACTGTCTTCATCCAGCCAG: -0.0733
- TTTGAGTTTGAGCTGAGGCTTG: -0.36
- TTATCCACAACCATAAGGGGAG: -0.805
- TTCTTGTGCACTCCATGGCCAT: -1.62
- ATTATCCACAACCATAAGGGGA: -1.17
- TTCCTGATGGTGTTTCTTCTTG: -0.564
- TTTTCTTGTGCACTCCATGGCC: -0.4
- TTACTGTCTTCATCCAGCCAGG: -0.737

====

- assay_system: AATK
- procedure_text: pooled miR-30 sensor sort-seq; sequence = guide strand
- run_parameters: shRNA
Assign YES whenever sensor-assay potency score (higher = more potent) does not fall below -0.9; assign NO whenever it does.

- AACTGCATCACCTCGTACCAGC: NO
- TTGATGGCAGACACCTCGCCAC: YES
- TTGTACTCAAAATTGAGGCCTC: YES
- TTCTGATCTCAGCGGAACCGGG: NO
- TAGCTCATCCTCGCCAGTCAGC: NO

====

- assay_system: FAM22D
- procedure_text: pooled miR-30 sensor sort-seq; sequence = guide strand
- run_parameters: shRNA
Assign yes whenever sensor-assay potency score (higher = more potent) does not fall below -0.4; assign no whenever it does.

* TTCTCATAGACACTCCTGGGGT | no
* TAAGACCAAGGTCTGCGCCTGA | yes
* TAAGACCCAGAGAGTGACCTGG | yes
* TCTCATAGACACTCCTGGGGTT | yes
* TTCCACAATGAGAAAAGCCAAG | no
* AAGTTAGACAGCACCAGAGGGC | no
* TTTGAAAGTAAACAGGTTCCTG | yes
* TTAGACAGCACCAGAGGGCCGC | yes

====

- assay_system: GATA4
- procedure_text: pooled miR-30 sensor sort-seq; sequence = guide strand
- run_parameters: shRNA
# sensor-assay potency score (higher = more potent) listing for each entry below
measured_quantity: sensor-assay potency score (higher = more potent)

• TCGACTTCAAGTTTCTTCCCAG = 0.0228
• TTCCGCATTGCAAGAGGCCTGG = -0.334
• TTCGTGTTGCAGAATCTCTGGC = 0.947
• TTGCTGGAAGCACCGCTGGCGG = -1.56
• TTAGCAGTCGTCTTCTTTCCAG = -0.572
• TTCTGAGAAGTCGTCAAACATA = -1.72
• TGACGGGAGACGCATAGCCTTG = -1.75
• TTTGCTATCCTCCAAGTCCCAG = -0.913
• TCGTCAAACATATCGAGATTGG = -0.878
• TGACACACTCTCTGCCTTCTGA = -0.406
• GAAGTCGTCAAACATATCGAGA = -1.84
• TTGTTCTGGAGTCATTACCAGG = -1.25
• TAAAACAGAATCTTGGTTCAAA = 0.268
• TTTATTCAGGTTCTTGGGCTTC = -0.422
• TTGGGCTTCCGTTTTCTGGTTT = -0.283
• TTCTGTTGTGTTGTGTTTGTTT = -0.142
• TTTATTTTGAGAGATGTTGGAA = 0.35

====

- assay_system: UQCRQ
- procedure_text: pooled miR-30 sensor sort-seq; sequence = guide strand
- run_parameters: shRNA
# sensor-assay potency score (higher = more potent) listing for each entry below
measured_quantity: sensor-assay potency score (higher = more potent)

- TCGAACTCTTCAGTCCCCCATG: -1.13
- TAAAACACTACAAACTGCGGCA: 0.151
- TATTGTGTCTTTGAGACACTAC: -0.42
- TCGAACGGTGACAAGCTGTAGC: -0.337
- TGTAGCTGATCACATGCCGCAT: -0.74
- AACGGTGACAAGCTGTAGCTGA: 0.0218
